Test system: NCI-H520
assay protocol: relative viability (nuclei count vs DMSO), 5 days (fraction); higher = more cells survive
protocol conditions: first compound 0.05 µM
Field 'label' (enum: T / F). Set to T when relative viability is strictly under 0.3; else F.

Consider the worked cases shown below.
1) COc1cc2nccc(Oc3ccc(NC(=O)Nc4cc(C)on4)c(Cl)c3)c2cc1OC [Tivozanib] + Nc1nc2[nH]cc(CCc3ccc(C(=O)N[C@@H](CCC(=O)O)C(=O)O)cc3)c2c(=O)[nH]1 [Pemetrexed] (partner 0.2 µM) : F
2) Nc1ccn([C@@H]2O[C@H](CO)[C@@H](O)[C@@H]2O)c(=O)n1 [Cytarabine] + CC(=O)c1c(C)c2cnc(Nc3ccc(N4CCNCC4)cn3)nc2n(C2CCCC2)c1=O [Palbociclib] (partner 0.5 µM) : T
3) Nc1ccn([C@@H]2O[C@H](CO)[C@@H](O)[C@@H]2O)c(=O)n1 [Cytarabine] + CCNC(=O)c1noc(-c2cc(C(C)C)c(O)cc2O)c1-c1ccc(CN2CCOCC2)cc1 [Luminespib] (partner 0.01 µM) : T
4) COc1cc2nccc(Oc3ccc(NC(=O)Nc4cc(C)on4)c(Cl)c3)c2cc1OC [Tivozanib] + CC(C)C[C@H](NC(=O)[C@H](Cc1ccccc1)NC(=O)c1cnccn1)B(O)O [Bortezomib] (partner 0.002 µM) : F
5) Nc1ccn([C@@H]2O[C@H](CO)[C@@H](O)[C@@H]2O)c(=O)n1 [Cytarabine] + N=C(N)NC(=N)NCCc1ccccc1 [Phenformin] (partner 250 µM) : F

We now examine a further compound.
### Prompt Item Nc1ccn([C@@H]2O[C@H](CO)[C@@H](O)[C@@H]2O)c(=O)n1 [Cytarabine] + Cc1nc(Nc2ncc(C(=O)Nc3c(C)cccc3Cl)s2)cc(N2CCN(CCO)CC2)n1 [Dasatinib] (partner 0.075 µM) : relative viability beneath 0.3, strictly?
### Response T
